System: HIV-1 IIIB strain
Assay: MT-4 HIV Wild Type Virus Infection Assay (IIIB Virus)
Assay type: cell-based
Details: Human immunodeficiency virus 1, IIIB, MT4, 120 h, MT-4 cells acutely infected with HIV-1 IIIB, 5 day incubation, Cell-titer glo
Would you mind telling me the reported pEC50 of each entry?
Friendly reminder that pEC50 comes from taking -log10 of the concentration in mol/L.

Asked: Tell us which pEC50 value is on record for COC(=O)N[C@H](C(=O)N[C@@H](Cc1ccc(C#Cc2cnc(N3CC4CCC(C3)N4C3COC3)nc2)cc1)[C@H](CN(Cc1c(F)cc(-c2ccn(C(F)F)n2)cc1F)NC(=O)[C@@H](NC(=O)OC)C(C)(C)C(F)(F)F)OC(=O)OCOC(=O)CC(C)(C)c1c(CC(=O)N2CC[C@H](C(=O)O)C2)cc(C)cc1OP(=O)(O)O)C(C)(C)C(F)(F)F
Given back: 8.09

Asked: Quote pEC50 reported for COC(=O)N[C@H](C(=O)N[C@@H](Cc1ccc(C#Cc2cnc(N3CC4CCC(C3)N4C3COC3)nc2)cc1)[C@H](CN(Cc1c(F)cc(-c2ccn(C(F)F)n2)cc1F)NC(=O)[C@@H](NC(=O)OC)C(C)(C)C(F)(F)F)OC(=O)OCOC(=O)CC(C)(C)c1c(CC(=O)NC(C)(C)CCC(=O)O)cc(C)cc1OP(=O)(O)O)C(C)(C)C(F)(F)F please.
Given back: 8.34

Asked: Give the value of pEC50 reported for the following: COC(=O)N[C@H](C(=O)N[C@@H](Cc1ccc(C#Cc2cnc(N3CC4CCC(C3)N4C3COC3)nc2)cc1)[C@H](CN(Cc1c(F)cc(-c2ccn(C(F)F)n2)cc1F)NC(=O)[C@@H](NC(=O)OC)C(C)(C)C(F)(F)F)OC(=O)CC(C)(C)c1c(CC(=O)Nc2cc(C#N)cc(C(=O)O)c2)cc(C)cc1OP(=O)(O)O)C(C)(C)C(F)(F)F
Given back: 6.61

Asked: State, in one line, measured pEC50 of COC(=O)N[C@H](C(=O)N[C@@H](Cc1ccc(C#Cc2cnc(N3CC4CCC(C3)N4C3COC3)nc2)cc1)[C@H](CN(Cc1c(F)cc(-c2ccn(C(F)F)n2)cc1F)NC(=O)[C@@H](NC(=O)OC)C(C)(C)C(F)(F)F)OC(=O)CC(C)(C)c1c(CC(=O)Nc2cc(C(=O)O)cc(C(=O)O)c2)cccc1OP(=O)(O)O)C(C)(C)C(F)(F)F
Given back: 7.41

Asked: Report measured pEC50; entry is COC(=O)N[C@H](C(=O)N[C@@H](Cc1ccc(C#Cc2cnc(N3CC4CCC(C3)N4C3COC3)nc2)cc1)[C@H](CN(Cc1c(F)cc(-c2ccn(C(F)F)n2)cc1F)NC(=O)[C@@H](NC(=O)OC)C(C)(C)C(F)(F)F)OC(=O)CC(C)(C)c1c(CC(=O)N[C@@H](Cc2c[nH]c3ccccc23)C(=O)O)cc(C)cc1OP(=O)(O)O)C(C)(C)C(F)(F)F
Given back: 6.70

Asked: Give the reported pEC50 for this compound. COC(=O)N[C@H](C(=O)N[C@@H](Cc1ccc(C#Cc2cnc(N3CC4CCC(C3)N4C3COC3)nc2)cc1)[C@H](CN(Cc1c(F)cc(-c2ccn(C(F)F)n2)cc1F)NC(=O)[C@@H](NC(=O)OC)C(C)(C)C(F)(F)F)OC(=O)OCOC(=O)CC(C)(C)c1c(CC(=O)N2CCN(CC(=O)O)CC2)cc(C)cc1OP(=O)(O)O)C(C)(C)C(F)(F)F
Given back: 8.08

---

Test: PBS Stability Assay
Type: physicochemical
Settings: buffer, pH 7.4, 2 μM, phosphate buffered saline pH 7.4; read-out: PBS T½
Label false (0) if half-life at 2 μM falls below 6 h; label true (1) in every other case.

Asked: Is half-life at 2 μM for COC(=O)N[C@H](C(=O)N[C@@H](Cc1ccc(C#Cc2cnc(N3CC4CCC(C3)N4C3COC3)nc2)cc1)[C@H](CN(Cc1c(F)cc(-c2ccn(C(F)F)n2)cc1F)NC(=O)[C@@H](NC(=O)OC)C(C)(C)C(F)(F)F)OC(=O)CC(C)(C)c1c(CC(=O)NCCCS(=O)(=O)O)cc(C)cc1OP(=O)(O)O)C(C)(C)C(F)(F)F at or above 6 h?
Given back: false (0)

Asked: Threshold query (half-life at 2 μM >= 6 h) on COC(=O)N[C@H](C(=O)N[C@@H](Cc1ccc(C#Cc2cnc(N3CC4CCC(C3)N4C3COC3)nc2)cc1)[C@H](CN(Cc1c(F)cc(-c2ccn(C(F)F)n2)cc1F)NC(=O)[C@@H](NC(=O)OC)C(C)(C)C(F)(F)F)OC(=O)CC(C)(C)c1c(CC(=O)N2CC[C@@H]2C(=O)O)cc(C)cc1OP(=O)(O)O)C(C)(C)C(F)(F)F
Given back: true (1)

Asked: Confirm if half-life at 2 μM reported for the compound COC(=O)N[C@H](C(=O)N[C@@H](Cc1ccc(C#Cc2cnc(N3CC4CCC(C3)N4C3COC3)nc2)cc1)[C@H](CN(Cc1c(F)cc(-c2ccn(C(F)F)n2)cc1F)NC(=O)[C@@H](NC(=O)OC)C(C)(C)C(F)(F)F)OC(=O)CC(C)(C)c1c(CC(=O)N[C@H]2C[C@H](C(=O)O)C2)cc(C)cc1OP(=O)(O)O)C(C)(C)C(F)(F)F is 6 h or above.
Given back: true (1)

Asked: In plain terms: is recorded half-life at 2 μM at least 6 h for COC(=O)N[C@H](C(=O)N[C@@H](Cc1ccc(C#Cc2cnc(N3CC4CCC(C3)N4C3COC3)nc2)cc1)[C@H](CN(Cc1c(F)cc(-c2ccn(C(F)F)n2)cc1F)NC(=O)[C@@H](NC(=O)OC)C(C)(C)C(F)(F)F)OC(=O)CC(C)(C)c1c(CC(=O)NCC(C)(C)C(=O)O)cc(C)cc1OP(=O)(O)O)C(C)(C)C(F)(F)F ?
Given back: false (0)

Asked: Could you please find out whether COC(=O)N[C@H](C(=O)N[C@@H](Cc1ccc(C#Cc2cnc(N3CC4CCC(C3)N4C3COC3)nc2)cc1)[C@H](CN(Cc1c(F)cc(-c2ccn(C(F)F)n2)cc1F)NC(=O)[C@@H](NC(=O)OC)C(C)(C)C(F)(F)F)OC(=O)CC(C)(C)c1c(CC(=O)N(CCCC(=O)O)CCC(=O)O)cc(C)cc1OP(=O)(O)O)C(C)(C)C(F)(F)F has half-life at 2 μM that meets 6 h or exceeds it?
Given back: true (1)

Asked: Hi, just wondering whether COC(=O)N[C@H](C(=O)N[C@@H](Cc1ccc(C#Cc2cnc(N3CC4CCC(C3)N4C3COC3)nc2)cc1)[C@H](CN(Cc1c(F)cc(-c2ccn(C(F)F)n2)cc1F)NC(=O)[C@@H](NC(=O)OC)C(C)(C)C(F)(F)F)OC(=O)OCOC(=O)CC(C)(C)c1c(CC(=O)N[C@@H](CC(=O)O)C(=O)O)cc(C)cc1OP(=O)(O)O)C(C)(C)C(F)(F)F shows half-life at 2 μM of 6 h or higher.
Given back: true (1)

Asked: Textbook exercise: given the entry COC(=O)N[C@H](C(=O)N[C@@H](Cc1ccc(C#Cc2cnc(N3CC4CCC(C3)N4C3COC3)nc2)cc1)[C@H](CN(Cc1c(F)cc(-c2ccn(C(F)F)n2)cc1F)NC(=O)[C@@H](NC(=O)OC)C(C)(C)C(F)(F)F)OC(=O)CC(C)(C)c1c(CC(=O)NCCOP(=O)(O)O)cc(C)cc1OP(=O)(O)O)C(C)(C)C(F)(F)F , state whether its half-life at 2 μM is greater than or equal to 6 h.
Given back: false (0)

Asked: Reported half-life at 2 μM at or above 6 h? COC(=O)N[C@H](C(=O)N[C@@H](Cc1ccc(C#Cc2cnc(N3CC4CCC(C3)N4C3COC3)nc2)cc1)[C@H](CN(Cc1c(F)cc(-c2ccn(C(F)F)n2)cc1F)NC(=O)[C@@H](NC(=O)OC)C(C)(C)C(F)(F)F)OC(=O)OCOC(=O)CC(C)(C)c1c(OP(=O)(O)O)cc(C(=O)O)cc1C(=O)O)C(C)(C)C(F)(F)F
Given back: true (1)

Asked: Determine whether measured half-life at 2 μM meets or exceeds 6 h for COC(=O)N[C@H](C(=O)N[C@@H](Cc1ccc(C#Cc2cnc(N3CC4CCC(C3)N4C3COC3)nc2)cc1)[C@H](CN(Cc1c(F)cc(-c2ccn(C(F)F)n2)cc1F)NC(=O)[C@@H](NC(=O)OC)C(C)(C)C(F)(F)F)OC(=O)OCOC(=O)CC(C)(C)c1c(C)cc(C)cc1OP(=O)(O)O)C(C)(C)C(F)(F)F
Given back: false (0)

Asked: hey, is half-life at 2 μM for this one >= 6 h? COC(=O)N[C@H](C(=O)N[C@@H](Cc1ccc(C#Cc2cnc(N3CC4CCC(C3)N4C3COC3)nc2)cc1)[C@H](CN(Cc1c(F)cc(-c2ccn(C(F)F)n2)cc1F)NC(=O)[C@@H](NC(=O)OC)C(C)(C)C(F)(F)F)OC(=O)CC(C)(C)c1c(CC(=O)N(C)[C@@H](C)C(=O)O)cc(C)cc1OP(=O)(O)O)C(C)(C)C(F)(F)F
Given back: false (0)

Asked: Dear colleague, could you confirm whether COC(=O)N[C@H](C(=O)N[C@@H](Cc1ccc(C#Cc2cnc(N3CC4CCC(C3)N4C3COC3)nc2)cc1)[C@H](CN(Cc1c(F)cc(-c2ccn(C(F)F)n2)cc1F)NC(=O)[C@@H](NC(=O)OC)C(C)(C)C(F)(F)F)OC(=O)CC(C)(C)c1c(CC(=O)N(CCC(=O)O)[C@@H](CCC(=O)O)C(=O)O)cc(C)cc1OP(=O)(O)O)C(C)(C)C(F)(F)F has half-life at 2 μM at or above 6 h?
Given back: false (0)
